Value source: patent US20240299359A1

assay: Pharmacokinetic analysis in beagles after oral administration; format: in vivo, beagle; settings: beagle, dog, plasma; oral 200 mg/kg (G4), mean
Readout Kind: half-life (h)
Could you give me the number in h? Just the number is fine.

What half-life value was documented for this compound, CN1C(=O)NC(=O)C1O (stereo not shown) ?
2.9

* * *

assay: Pharmacokinetic analysis in beagles after oral administration; assay type: in vivo, beagle; details: beagle, dog, plasma; oral 50 mg/kg (G2), mean
Readout Kind: AUC(0-t) (µg·h/mL)
Could you give me the number in µg·h/mL? Just the number is fine.

What AUC(0-t) value was documented for this molecule, CN1C(=O)NC(=O)C1O (stereo not shown) [KBP-001] ?
288
